# System: LOX IMVI melanoma
# assayMethodText: NCI tumour cell line growth inhibition, 48 h; in the data active = GI50 below about 0.43 µM; inactive = the rest
Choose one outcome from this list and give only that: YES (active), NO (inactive)

input: Kindly provide the recorded test outcome for the following compound: `C=C1C[C@H](O)[C@H](Br)C(C)(C)[C@@]12CCC(C)=C(Cl)C2`
output: NO

input: Kindly provide the recorded test outcome for the following compound: `CCOC(=O)n1cc(C2=C(c3ccc(OC)c(OC)c3)COC2=O)c2ccccc21`
output: YES

input: Kindly provide the recorded test outcome for the following compound: `O=C1c2c(F)c(F)c(F)c(F)c2C(=O)N1c1ccc(F)cc1F`
output: NO

input: Kindly provide the recorded test outcome for the following compound: O=C(NC1CCCCC1)NS(=O)(=O)c1ccc(N2N=C3c4ccccc4CC3C2c2ccc(Cl)cc2)cc1 (centres undefined)
output: NO

---

# Tested on: OVCAR-8 ovarian
# assayMethodText: NCI tumour cell line growth inhibition, 48 h; in the data active means GI50 below about 0.43 µM; inactive means the rest
Choose one outcome from this list and give only that: active, inactive

A selection of reference data follows.
{"columns": ["smilesStructure", "classification"],
 "data": [
  ["COc1ccccc1NC(=O)c1cc2cc(Br)ccc2cc1O", "inactive"],
  ["CC[C@@H](c1ccc(O)c(O)c1)[C@@H](CC)c1ccc(O)c(O)c1", "inactive"],
  ["NC(=S)N/N=C\\c1nccc2c(C(F)(F)F)cccc12", "active"],
  ["CC(C)[C@@H]1NC(=O)[C@]2(C)CSC(=N2)c2ccnc(c2)CNC(=O)C[C@@H](/C=C/CCS)OC1=O", "active"],
  ["C=C1C[C@H](O)[C@H](Br)C(C)(C)[C@@]12CCC(C)=C(Cl)C2", "active"]
]}

input: Kindly provide the recorded test outcome for the following compound: `CCCCCCOc1ccc(/C=N/Nc2cc(C)nc3ccc(Cl)cc23)cc1`
output: inactive

input: Kindly provide the recorded test outcome for the following compound: `NC(=S)N/N=C1\c2cc(Cl)ccc2-c2c1cc(Cl)cc2[N+](=O)[O-]`
output: inactive

input: Kindly provide the recorded test outcome for the following compound: `CN1CCN(C(=O)COc2ccc(C34CC5CC(CC(C5)C3)C4)cc2)CC1`
output: inactive

input: Kindly provide the recorded test outcome for the following compound: `NCCNCCNCCN`
output: inactive

input: Kindly provide the recorded test outcome for the following compound: `COc1ccc2ncnc(Nc3ccc(OCc4ccccc4)cc3)c2c1`
output: inactive

input: Kindly provide the recorded test outcome for the following compound: `[O-][Cl+3]([O-])([O-])[O-].[O]=[Ru]=[O].c1ccc(-c2ccccn2)nc1.c1ccc(-c2ccccn2)nc1`
output: inactive

---

# System: BT-549 breast
# assayMethodText: NCI tumour cell line growth inhibition, 48 h
*1 amine or outer side, *2 acyl side, *3 side chain or, on linkers, in order; H or OH if unused. Where a SMILES comes first, the peptide text is derived from it. Bridges are numbered along the chain shown (N, C = ends). Roman numbers before positions name the chains, in order. [ ]: non-standard residue; d: D form. Actinocin(9to1) = Cc1c2oc3c(C)ccc(C(=O)[*:1])c3nc-2c(C(=O)[*:2])c(N)c1=O; NMeV = CN[CH](C(=O)O)C(C)C; Sar = CNCC(=O)O
// TGI lookup, one value per entry

{"columns": ["compound", "TGI"],
 "data": [
  ["CCNC(=O)C#Cc1ccc2c(C(=Nc3ccc(CN(C)C)cc3)c3ccccc3)c(O)[nH]c2c1", "> 10 µM"],
  ["C(=C/CCCN1O[C@@H](CCCCCCCCc2cccnc2)[C@H]2CCC[C@H]21)/CCCCCCCCCc1cccnc1", "95.7 µM"],
  ["Cc1c2oc3c(C)ccc(C(=O)NC4C(=O)NC(C(C)C)C(=O)N5CCCC5C(=O)N(C)CC(=O)N(C)C(C(C)C)C(=O)OC4C)c3nc-2c(C(=O)NC2C(=O)NC(C(C)C)C(=O)N3CCCC3C(=O)N(C)CC(=O)N(C)C(C(C)C)C(=O)OC2C)c(N)c1=O (stereo unspecified) (I: TVP[Sar][NMeV] / II: TVP[Sar][NMeV]; ester I:1-I:C, II:1-II:C; linker I:N-II:N via Actinocin(9to1); configuration not given here)", "0.0292 µM"],
  ["CCC(C)SC1SCC2C(=O)N(C)C3(CC3C)C(=O)OCC(NC(=O)c3nc4ccccc4cc3O)C(=O)NC(C)C(=O)N(C)C1C(=O)N(C)C1(CC1C)C(=O)OCC(NC(=O)c1nc3ccccc3cc1O)C(=O)NC(C)C(=O)N2C (stereo unspecified)", "0.000693 µM"],
  ["CCOC(=O)c1cn2c(n1)sc1cc(F)ccc12", "> 100 µM"]
]}

input: Fill in the recorded TGI for this compound, with BT-549 breast as test system: Cc1nn(C(=O)Cc2ccccc2)c2c1C(c1ccccc1)SC(N)=N2 (stereo unspecified)
output: > 100 µM

input: Fill in the recorded TGI for this compound, with BT-549 breast as test system: `C=C(C)C(=O)O[C@@H]1C[C@@]2(C)O[C@@H]2C[C@H](O)/C(C)=C/[C@H]2OC(=O)C(=C)[C@@H]21`
output: > 100 µM

input: Fill in the recorded TGI for this compound, with BT-549 breast as test system: CCOC(=O)C12OC(OCC)(CC1(OCC)OCC)C1(CC1)C2=O (stereo unspecified)
output: > 100 µM

input: Fill in the recorded TGI for this compound, with BT-549 breast as test system: O=c1[nH]c(=O)n(C2COC(CO)C2O)cc1F (stereo unspecified)
output: > 100 µM

input: Fill in the recorded TGI for this compound, with BT-549 breast as test system: `CC(=O)N[C@@H](Cc1ccc(OP(=O)(O)O)cc1)C(=O)N[C@H]1CCC(=O)N2CCC[C@@H](C(=O)Nc3cccc4ccccc34)N2C1=O`
output: > 25 µM

input: Fill in the recorded TGI for this compound, with BT-549 breast as test system: `NC(=S)N/N=C\c1nccc2c(C(F)(F)F)cccc12`
output: 7.71 µM
